Experiment: The drug is tested on Z-025 corresponding to rabbit gut metagenome with ENA study accession number: PRJEB37062 and ENA sample accession number: ERS12561824 for biotransformation under anaerobic condition. The drug concentrations were measured over 9 timepoints collected between 0 and 24 hours of incubation by liquid-chromatography-coupled mass spectrometry (LC–MS); also: call rule not given here
Conditions: 2 µM
readout-name: Bacterial Biotransformation

molecule: CCOc1cc(CC(=O)N[C@@H](CC(C)C)c2ccccc2N2CCCCC2)ccc1C(=O)O [REPAGLINIDE]
Bacterial Biotransformation: Compound NOT metabolized
//
molecule: C#C[C@]1(OC(C)=O)CC[C@H]2[C@@H]3CCC4=C[C@@H](OC(C)=O)CC[C@@H]4[C@H]3CC[C@@]21C [ETHYNODIOL DIACETATE]
Bacterial Biotransformation: Compound metabolized
//
molecule: CN(C)CCOC(C)(c1ccccc1)c1ccccn1.O=C(O)CCC(=O)O (configuration not stated) [DOXYLAMINE SUCCINATE]
Bacterial Biotransformation: Compound NOT metabolized
//
molecule: CCOC(=O)[C@H](CCc1ccccc1)N[C@@H](C)C(=O)N1Cc2ccccc2C[C@H]1C(=O)O
Bacterial Biotransformation: Compound NOT metabolized
//
molecule: OC(c1cc(C(F)(F)F)nc2c(C(F)(F)F)cccc12)C1CCCCN1 (configuration not stated) [MEFLOQUINE]
Bacterial Biotransformation: Compound NOT metabolized
//
molecule: CC(C)(C)NCC(O)c1cc(Cl)c(N)c(Cl)c1 (configuration not stated) [CLENBUTEROL]
Bacterial Biotransformation: Compound NOT metabolized

# lookup: Bacterial Biotransformation of CN1CCC(=C2c3ccccc3CC(=O)c3sccc32)CC1.O=C(O)/C=C/C(=O)O [KETOTIFEN FUMARATE] Compound NOT metabolized

# lookup: Bacterial Biotransformation of CC(=O)CCCCn1c(=O)c2c(ncn2C)n(C)c1=O [PENTOXIFYLLINE] Compound NOT metabolized

# lookup: Bacterial Biotransformation of COc1cc2nc(N3CCN(C(=O)C4CCCO4)CC3)nc(N)c2cc1OC (configuration not stated) [TERAZOSIN] Compound NOT metabolized

# lookup: Bacterial Biotransformation of COC(=O)[C@H](c1ccccc1Cl)N1CCc2sccc2C1.O=S(=O)(O)O [CLOPIDOGREL BISULFATE] Compound metabolized

# lookup: Bacterial Biotransformation of COc1ccc([C@@H]2Sc3ccccc3N(CCN(C)C)C(=O)[C@@H]2OC(C)=O)cc1 [DILTIAZEM] Compound NOT metabolized

# lookup: Bacterial Biotransformation of Cc1cc2c(s1)Nc1ccccc1N=C2N1CCN(C)CC1 [OLANZAPINE] Compound metabolized

# lookup: Bacterial Biotransformation of COC1=C(OC)C(=O)C(CCCCCCCCCCO)=C(C)C1=O [IDEBENONE] Compound metabolized

# lookup: Bacterial Biotransformation of CC(=O)O[C@]1(C(C)=O)CC[C@H]2[C@@H]3C=C(C)C4=CC(=O)CC[C@]4(C)[C@H]3CC[C@@]21C [MEGESTROL ACETATE] Compound metabolized

# lookup: Bacterial Biotransformation of C[C@@H](c1ncncc1F)[C@](O)(Cn1cncn1)c1ccc(F)cc1F [VORICONAZOLE] Compound NOT metabolized

# lookup: Bacterial Biotransformation of C[C@]12C=CC(=O)C=C1CC[C@@H]1[C@@H]2C(=O)C[C@@]2(C)[C@H]1CC[C@]2(O)C(=O)CO [PREDNISONE] Compound NOT metabolized

# lookup: Bacterial Biotransformation of CN1CCN2c3ccccc3Cc3ccccc3C2C1 (configuration not stated) [MIANSERIN] Compound metabolized

These measurements were taken from ChEMBL document CHEMBL5724914.
